# System: Staphylococcus sp.
# assay.summary: In vitro antibacterial evaluation: minimum inhibitory concentration (MIC), broth dilution method
# Type: cell-based
# test.parameters: strain GC 4551
Please respond with reported MIC Coagulase Negative Staphylococcus (GC 4551) for every item in the list.
One number for each entry, in µg/mL.

Consider the reported MIC Coagulase Negative Staphylococcus (GC 4551) for these molecules:
CC(c1ccccc1)C1NC(=O)CNC(=O)C(CO)NC(=O)C(C(O)C2CNC(=N)N2C2OC(CO)C(O)C(O)C2O)NC(=O)C(C(O)C2CNC(=N)N2)NC(=O)C(Cc2ccc(OC3OC(CO)C(OC4OC5COC(Cc6ccc(F)cc6)OC5C(O)C4O)C(O)C3O)cc2)NC1=O (stereo not drawn)	2
CC(c1ccccc1)C1NC(=O)CNC(=O)C(CO)NC(=O)C(C(O)C2CNC(=N)N2C2OC(CO)C(O)C(O)C2O)NC(=O)C(C(O)C2CNC(=N)N2)NC(=O)C(Cc2ccc(OC3OC(CO)C(OC4OC5COC(c6ccc(C(=O)c7ccc(I)cc7)cc6)OC5C(O)C4O)C(O)C3O)cc2)NC1=O (stereo not drawn)	2

Now look at this entry.
Problem: Could you share which MIC Coagulase Negative Staphylococcus (GC 4551) value was measured for CC(c1ccccc1)C1NC(=O)CNC(=O)C(CO)NC(=O)C(C(O)C2CNC(=N)N2C2OC(CO)C(O)C(O)C2O)NC(=O)C(C(O)C2CNC(=N)N2)NC(=O)C(Cc2ccc(OC3OC(CO)C(OC4OC5COC(c6ccccc6)OC5C(O)C4O)C(O)C3O)cc2)NC1=O (stereo not drawn) ?
Result: 1
